- Target or system: UGT2B7 (Homo sapiens, UniProt P16662)
- Sequence (P16662 24-529): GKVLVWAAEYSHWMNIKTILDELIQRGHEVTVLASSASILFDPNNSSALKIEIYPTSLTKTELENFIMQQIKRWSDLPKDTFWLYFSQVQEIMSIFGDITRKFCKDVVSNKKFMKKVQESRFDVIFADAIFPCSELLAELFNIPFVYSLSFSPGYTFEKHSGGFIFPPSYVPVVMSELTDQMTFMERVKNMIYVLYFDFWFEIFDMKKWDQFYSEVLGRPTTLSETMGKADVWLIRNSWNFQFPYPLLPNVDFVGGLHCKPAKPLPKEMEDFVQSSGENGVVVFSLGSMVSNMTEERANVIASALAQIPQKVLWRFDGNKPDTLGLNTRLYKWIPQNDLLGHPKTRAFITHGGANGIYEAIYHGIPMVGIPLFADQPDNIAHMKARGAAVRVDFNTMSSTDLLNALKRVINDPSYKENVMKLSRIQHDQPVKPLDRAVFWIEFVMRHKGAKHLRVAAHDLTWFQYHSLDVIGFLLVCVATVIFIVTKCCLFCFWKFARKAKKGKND
Endpoint name: pIC50
pIC50 here: minus log base 10 of the concentration, concentration in moles per litre.

Asked: Query (molecule): O=C1Nc2ccc(Cl)cc2[C@@](C#CC2CC2)(C(F)(F)F)O1 ; field requested: pIC50
Given back: 4.56

----------
- Target or system: OATP1B1 (Homo sapiens, UniProt Q9Y6L6)
- Sequence (Q9Y6L6 1-691): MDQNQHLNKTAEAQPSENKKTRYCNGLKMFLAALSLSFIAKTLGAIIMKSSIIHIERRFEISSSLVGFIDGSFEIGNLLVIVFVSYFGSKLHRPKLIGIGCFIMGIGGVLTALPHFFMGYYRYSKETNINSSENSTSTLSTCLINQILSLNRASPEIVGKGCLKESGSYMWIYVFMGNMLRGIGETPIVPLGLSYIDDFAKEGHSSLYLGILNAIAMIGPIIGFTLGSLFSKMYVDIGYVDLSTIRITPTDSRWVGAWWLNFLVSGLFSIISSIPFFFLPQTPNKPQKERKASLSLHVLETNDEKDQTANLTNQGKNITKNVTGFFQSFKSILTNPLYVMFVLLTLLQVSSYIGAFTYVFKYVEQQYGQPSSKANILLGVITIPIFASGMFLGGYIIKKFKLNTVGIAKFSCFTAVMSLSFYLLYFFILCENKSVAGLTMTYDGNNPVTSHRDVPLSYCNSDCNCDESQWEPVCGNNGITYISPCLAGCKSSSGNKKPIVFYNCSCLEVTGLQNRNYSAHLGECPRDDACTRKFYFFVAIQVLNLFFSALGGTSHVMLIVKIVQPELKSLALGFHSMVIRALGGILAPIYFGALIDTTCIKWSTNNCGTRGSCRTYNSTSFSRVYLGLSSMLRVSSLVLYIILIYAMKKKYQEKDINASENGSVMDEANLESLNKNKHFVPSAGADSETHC
- Assay details: in vitro
Endpoint name: IC50 at 5 min (µM)
Value expressed in µM; do not type the unit.

Asked: Entry C[C@H](CCC(=O)O)[C@H]1CC[C@H]2[C@@H]3[C@H](O)C[C@@H]4C[C@H](O)CC[C@]4(C)[C@H]3C[C@H](O)[C@]12C [MT921, cholic acid] , system OATP1B1 (Homo sapiens, UniProt Q9Y6L6): what IC50 at 5 min was measured?
Given back: 63.2

----------
- Target or system: UniProt P10632
- Sequence (P10632 1-490): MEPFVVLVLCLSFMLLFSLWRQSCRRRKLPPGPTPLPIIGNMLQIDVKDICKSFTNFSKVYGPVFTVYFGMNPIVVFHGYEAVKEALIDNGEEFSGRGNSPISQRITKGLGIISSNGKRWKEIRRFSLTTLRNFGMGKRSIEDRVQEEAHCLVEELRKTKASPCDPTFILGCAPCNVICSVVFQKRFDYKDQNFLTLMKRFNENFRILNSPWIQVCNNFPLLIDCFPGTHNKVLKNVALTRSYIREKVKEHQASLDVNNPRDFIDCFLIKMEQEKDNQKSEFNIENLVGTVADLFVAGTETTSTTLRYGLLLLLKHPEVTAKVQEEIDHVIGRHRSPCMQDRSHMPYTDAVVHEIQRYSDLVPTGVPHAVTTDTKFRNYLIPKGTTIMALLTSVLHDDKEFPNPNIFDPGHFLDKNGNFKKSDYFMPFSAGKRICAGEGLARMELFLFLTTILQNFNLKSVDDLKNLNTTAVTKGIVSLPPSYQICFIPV
- Condition details: read-out: Positive control IC50; Rosiglitazone hydroxylation; in-house data, similar to the reference values [1]
Endpoint name: pIC50
pIC50 here: minus log base 10 of the concentration, concentration in moles per litre.

Asked: Query (compound): O=c1c(O)c(-c2ccc(O)c(O)c2)oc2cc(O)cc(O)c12 ; field requested: pIC50
Given back: 5.07
